- target.under.test: GABA A receptor α5β3γ2 (Homo sapiens, UniProt P18507+P31644)
- Construct: expressed in transfected cells; host or cells: HEK293 (transiently transfected for the human receptors)
- procedure.text: [3H]flumazenil competition binding, human GABA A α5β3γ2 receptors expressed in HEK293 cells
- measurement.context: Table 1; human α5, [3H]flumazenil, mean of two determinations; read-out: Ki h
pKi: −log10 of the molar value.
readout.type: pKi

Would you please look over these solved cases?
{"columns": ["compound.structure.string", "readout.type", "value.reported"],
 "data": [
  ["Cc1onc(-c2cccc(F)c2)c1C(=O)c1c[nH]c2cc(C(=O)NCCN3CCOCC3)ccc12", "pKi", 7.64],
  ["Cc1onc(-c2ccc(F)cc2)c1C(=O)c1c[nH]c2cc(C(=O)NCCc3cnc[nH]3)ccc12", "pKi", 8.59],
  ["C#CCNC(=O)c1ccc2c(C(=O)c3c(-c4ccccc4)noc3C)c[nH]c2c1", "pKi", 8.54]
]}

[A] Cc1onc(-c2ccc(F)cc2)c1C(=O)c1c[nH]c2cc(C(=O)NCc3ccncc3)ccc12
[B] Cc1onc(-c2ccc(F)cc2)c1C(=O)c1c[nH]c2cc(C(=O)NCc3cccnc3)ccc12
[C] Cc1onc(-c2cccc(F)c2)c1C(=O)c1cn(-c2ccccc2)c2cc(C(=O)NCc3ccco3)ccc12
[D] Cc1onc(-c2ccc(F)cc2)c1C(=O)c1c[nH]c2cc(C(=O)NC3CCC3)ccc12
[E] CC(C)c1onc(-c2cccc(F)c2)c1C(=O)c1c[nH]c2cc(C(=O)NCc3ccco3)ccc12
Sort entries by pKi from minimum to maximum value. Use the labels to give the ranking in the order requested.
E, C, D, A, B
(E: 7.34, C: 7.60, D: 8.17, A: 8.44, B: 8.65)
